Test: Binding affinity to recombinant TNFalpha (unknown origin) expressed in Escherichia coli BL21 (DE3) assessed as Kd for TNF-alpha-TNFR1 binding at 10 uM pe-incubated for 15 mins before TNFR1 addition and measured after 15 mins by MST assay (Rvb = 0.23 uM)
pKd: −log10 of the molar value.
Attribute measured: pKd

Structure smiles: O=C1C[C@H](Nc2ncnc3[nH]cnc23)CN1Cc1ccccc1
Recorded value: 5.37

###

Experiment: Binding affinity to recombinant TNFalpha (unknown origin) expressed in Escherichia coli BL21 (DE3) assessed as Kd for TNF-alpha-TNFR1 binding at 100 uM pe-incubated for 15 mins before TNFR1 addition and measured after 15 mins by MST assay (Rvb = 0.23 uM)
Attribute measured: Kd (µM)

Structure smiles: O=C1C[C@H](Nc2ncnc3[nH]cnc23)CN1Cc1ccccc1
Recorded value: 19.6
